Molecular target: Histone deacetylase 8 (Homo sapiens)
Sequence (Q9BY41 whole entry): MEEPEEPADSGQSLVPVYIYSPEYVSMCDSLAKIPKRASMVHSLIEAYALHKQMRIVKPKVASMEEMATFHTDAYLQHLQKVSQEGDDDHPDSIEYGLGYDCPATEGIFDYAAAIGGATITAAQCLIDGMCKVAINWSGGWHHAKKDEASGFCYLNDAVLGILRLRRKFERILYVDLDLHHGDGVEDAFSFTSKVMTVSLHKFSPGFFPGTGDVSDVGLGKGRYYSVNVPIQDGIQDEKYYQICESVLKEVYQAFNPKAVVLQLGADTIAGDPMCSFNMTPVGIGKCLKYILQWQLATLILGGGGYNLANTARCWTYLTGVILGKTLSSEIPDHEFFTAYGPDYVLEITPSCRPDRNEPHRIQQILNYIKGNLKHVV
Assay: Inhibition of human recombinant HDAC8 using fluorogenic HDAC substrate class 2A preincubated for 30 mins followed by substrate addition and measured after 15 mins by fluorogenic assay
MEASUREMENT TYPE: IC50

CSCC[C@@H]1NCC(=O)NC1=O = 88.4 nM

Fill in the recorded IC50 for this compound, with Histone deacetylase 8 (Homo sapiens) as test system: O=C1CN[C@@H](Cc2ccccc2)C(=O)N1
67.4 nM

Observed IC50 on Histone deacetylase 8 (Homo sapiens) for CSCC[C@H]1NCC(=O)NC1=O , please.
79.7 nM

Could you share what IC50 was measured for O=C1CN[C@H](Cc2cc3ccccc3[nH]2)C(=O)N1 , tested on Histone deacetylase 8 (Homo sapiens)?
51.1 nM

// map O=C1CN[C@H](Cc2ccccc2)C(=O)N1 to recorded IC50 (system: Histone deacetylase 8 (Homo sapiens))
21.5 nM

Lab note: need IC50 for O=C1CN[C@@H](Cc2cc3ccccc3[nH]2)C(=O)N1 on Histone deacetylase 8 (Homo sapiens), anyone have it?
10.8 nM
